Molecular target: T1, DLL3 (target ligand immobilized on a SA sensor chip via streptavidin capture) (Homo sapiens (Human), UniProt Q9NYJ7 27-492, limits assumed)
T1 sequence: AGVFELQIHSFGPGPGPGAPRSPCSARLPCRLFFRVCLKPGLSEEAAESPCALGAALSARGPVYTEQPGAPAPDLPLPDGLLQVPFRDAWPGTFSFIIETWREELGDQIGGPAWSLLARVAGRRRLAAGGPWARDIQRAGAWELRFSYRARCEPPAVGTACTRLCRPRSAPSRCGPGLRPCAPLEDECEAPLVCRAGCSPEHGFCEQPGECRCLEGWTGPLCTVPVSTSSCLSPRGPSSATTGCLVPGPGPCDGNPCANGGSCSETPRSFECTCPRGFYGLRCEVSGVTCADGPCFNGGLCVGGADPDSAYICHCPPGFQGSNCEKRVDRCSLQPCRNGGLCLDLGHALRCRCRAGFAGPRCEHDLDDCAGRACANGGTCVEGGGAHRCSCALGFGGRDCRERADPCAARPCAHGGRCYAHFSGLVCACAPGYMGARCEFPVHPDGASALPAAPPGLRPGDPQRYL
Experiment: SPR, Biacore S200, target ligand on SA chip, 25 C, 1:1 fit
Bridges are numbered along the chain shown (N, C = ends).
reported_metric: pKd
Answer as the number alone; pKd is minus log10 of concentration in mol/L.

Q) Look up pKd of Ac-MWTLCDTWDTCFP-NH2 (disulfide 5-11; SMILES CSCC[C@H](NC(C)=O)C(=O)N[C@@H](Cc1c[nH]c2ccccc12)C(=O)N[C@H](C(=O)N[C@@H](CC(C)C)C(=O)N[C@H]1CSSC[C@@H](C(=O)N[C@@H](Cc2ccccc2)C(=O)N2CCC[C@H]2C(N)=O)NC(=O)[C@H]([C@@H](C)O)NC(=O)[C@H](CC(=O)O)NC(=O)[C@H](Cc2c[nH]c3ccccc23)NC(=O)[C@H]([C@@H](C)O)NC(=O)[C@H](CC(=O)O)NC1=O)[C@@H](C)O) [SEQ ID NO 72] and report it.
A) 7.62
